Reference for the values: patent EP1142587A1

Field: ED50. Provide a value for each of the compounds that follow.
Tested on: mouse
Experiment: Anti-dopamine action against apomorphine-induced climbing behavior
Format: in vivo
Details: sc, apomorphine 2mg/kg s.c. 10 minutes after test drug, climbing measured from 20 minutes after apomorphine for 1 minute, read-out: ED50 value regarding anti-dopamine action
Method: The term "a compound having dopamine D2 receptor antagonist activity" is used herein to mean a compound showing a binding affinity in a D2 receptor membrane binding test, and also showing inhibiting effect to apomorphine-induced climbing behavior. The administration of dopamine receptor agonists, apomorphine induces a continual climbing behavior in mice. […] Furthermore, a sigmoid curve was determined from dose response by a method of least squares, and ED50 value was calculated.
Numeric only. Scale: mg/kg

-- ask Which value of ED50 has been reported for Cc1ccc(CN2CCC3(CC2)C(=O)NCN3c2ccccc2)cn1 [Example 16] in the records?
-- reply 11.9

-- ask Also O=C1NCN(c2ccccc2)C12CCN(Cc1ccc(Cl)nc1)CC2 [Example 15] ?
-- reply 1.22

-- ask Also O=C1NCN(c2ccccc2)C12CCN(Cc1ccc(Br)cc1)CC2 [Example 18] ?
-- reply 1.05

-- ask Also Cc1ccc(CN2CCC3(CC2)C(=O)NCN3c2ccccc2)cc1 [Example 23] ?
-- reply 9.5

-- ask Also COc1ccc(CN2CCC3(CC2)C(=O)NCN3c2ccccc2)cc1 [Example 14] ?
-- reply 2.22
